# assay method text: in vivo
# condition notes: male, Sprague-Dawley, rat, iv, 3 mg/kg
measure name: AUC(0-inf) (ng·h/mL)
Express the result in ng·h/mL but write the number alone.

Lookup result for COc1cc2c3c(c4cc(OC)c(OC)cc4c2cc1OC)CN1CCC[C@@H]1C3 ; measured AUC(0-inf): 772

====

# assay method text: in vivo
# condition notes: male, Sprague-Dawley, rat, 3 mg/kg
measure name: bioavailability (%)
Express the result in % but write the number alone.

Lookup result for COc1cc2c3c(c4cc(OC)c(OC)cc4c2cc1OC)CN1CCC[C@@H]1C3 [Compound 1a, Tylophorine] ; measured bioavailability: 65.7

====

# assay method text: in vitro
# condition notes: swine
measure name: CC50

>>> readout_value("COc1ccc2c3c(c4cc(OC)c(OC)cc4c2c1)CN1CCC[C@H]1[C@@H]3O [Compound 1e, tylophorinine]")
"> 100 µM"

Lookup result for COc1cc2c3c(c4cc(OC)c(OC)cc4c2cc1OC)CN1CCC[C@@H]1C3 [Compound 1a, Tylophorine] ; measured CC50: > 100 µM

====

# Test system: ST cells
# condition notes: swine
measure name: CC50

Lookup result for COc1cc2c3c(c4cc(OC)c(OC)cc4c2cc1OC)CN1CCC[C@@H]1C3 [1a′, tylophorine] ; measured CC50: > 100 µM

====

# assay method text: in vivo
# condition notes: male, Sprague-Dawley, rat, po, 3 mg/kg
measure name: AUC(0-inf)

Lookup result for COc1cc2c3c(c4cc(OC)c(OC)cc4c2cc1OC)CN1CCC[C@@H]1C3 ; measured AUC(0-inf): 0.507 µg·h/mL

====

# assay method text: in vivo
# condition notes: male, Sprague-Dawley, rat, po, 3 mg/kg
measure name: Cmax

Lookup result for COc1cc2c3c(c4cc(OC)c(OC)cc4c2cc1OC)CN1CCC[C@@H]1C3 ; measured Cmax: 31.9 ng/mL

====

# assay method text: in vivo
# condition notes: male, Sprague-Dawley, rat, iv, 3 mg/kg
measure name: clearance (mL/min/kg)
Express the result in mL/min/kg but write the number alone.

Lookup result for COc1cc2c3c(c4cc(OC)c(OC)cc4c2cc1OC)CN1CCC[C@@H]1C3 ; measured clearance: 66.8
